Value source: ChEMBL document CHEMBL2176926

Biological target: UniProtKB Q6DE08
Sequence (Q6DE08 whole entry): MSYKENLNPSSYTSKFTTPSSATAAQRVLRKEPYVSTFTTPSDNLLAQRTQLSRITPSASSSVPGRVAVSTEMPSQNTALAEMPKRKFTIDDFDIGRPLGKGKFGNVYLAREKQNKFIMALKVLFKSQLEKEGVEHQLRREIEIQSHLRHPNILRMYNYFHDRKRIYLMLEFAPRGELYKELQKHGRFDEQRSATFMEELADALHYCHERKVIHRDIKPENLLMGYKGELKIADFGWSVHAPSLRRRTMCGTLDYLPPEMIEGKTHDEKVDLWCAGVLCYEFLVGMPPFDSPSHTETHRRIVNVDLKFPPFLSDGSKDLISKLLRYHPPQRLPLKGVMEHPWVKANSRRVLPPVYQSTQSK
Assay: Inhibition of Xenopus laevis Aurora kinase B/INCEP complex using gamma-[32P]ATP incubated for 1 hr by autoradiography
Entries annotated with measured IC50
metric: IC50 (nM)

[[record]]
compound = "Cc1cc(Nc2cc(N3CCN(C)CC3)nc(Sc3ccc(NC(=O)C4CC4)cc3)n2)[nH]n1 [TOZASERTIB]"
metric = "IC50"
units_text = "nM"
quantitative_readout = 19

[[record]]
compound = "COc1cc2c(Nc3ccc(NC(=O)c4ccccc4)cc3)ncnc2cc1OCCCN1CCOCC1"
metric = "IC50"
units_text = "nM"
quantitative_readout = 45

[[record]]
compound = "CCS(=O)(=O)Nc1ccc2c(c1)/C(=C(/Nc1ccc(CN3CCCCC3)cc1)c1ccccc1)C(=O)N2 [HESPERADIN]"
metric = "IC50"
units_text = "nM"
quantitative_readout = 3

